# TEST SUMMARY: BET inhibitor-based combinations targeting novel dependencies in MECOM-rearranged (r) AML: AML-191 cell line (AID 2202236; note: nearly all actives have a fitted effect of over 35% in size)
# DETAILS: AML-191 viability, CellTiter-Glo luminescence, 48 h; series mostly up to 46 µM
Inconclusive results are not listed. Calls of active or inactive are those of the source. Calls come from the whole dose curve; as a rule, active = well fitted inhibition curve with a large enough effect; inconclusive = small, poorly fitted or top-dose-only effect; inactive = flat fitted curve, though single readings scatter.
Possible outcomes: active, inactive

COMPOUND	LABEL
CCC(CC)C(c1ccc(Nc2nc3ccccc3s2)cc1)n1cncn1 (stereo not drawn)	active
C[C@H](NC(=O)c1sccc1OCc1ccc(Cl)cc1)c1ccccc1	inactive
COc1cc2ncnc(Nc3cccc(Br)c3)c2cc1OC	active

----------
# TEST SUMMARY: BET inhibitor-based combinations targeting novel dependencies in MECOM-rearranged (r) AML: HNT-34 cell line (AID 2202234); note: nearly all actives have a fitted effect of over 35% in size; note: potency is the fitted concentration of half-maximal effect
# DETAILS: HNT-34 AML viability, CellTiter-Glo luminescence, 48 h; series mostly up to 46 µM
Inconclusive results are not listed. Calls of active or inactive are those of the source. Calls come from the whole dose curve; as a rule, active = well fitted inhibition curve with a large enough effect; inconclusive = small, poorly fitted or top-dose-only effect; inactive = no such curve, though single readings can be large or run the other way.
MEASURED PROPERTY: Potency

STRUCTURE STRING	ASSAY RESULT
COc1ccc2c(OCc3nnc4ccc(-c5ccccc5)nn34)ccnc2c1	inactive
Nc1nc(F)nc2c1ncn2[C@@H]1O[C@H](CO)[C@@H](O)[C@@H]1O	14.8 µM (active)
N#Cc1c(C2CCNCC2)cc(-c2c(O)cccc2OCC2CC2)nc1N	23.5 µM (active)
CCCNC(=O)Nc1ccc(Oc2ncnc3cc(OC)c(OC)cc23)cc1Cl	inactive
CC1(C)Cc2c(sc(NC(=S)NC(=O)c3ccccc3)c2C(=O)O)CO1	inactive
O=C(Nc1ccc(F)c(C(F)(F)F)c1)Nc1nnc(-c2ccncc2)s1	inactive
C[C@@H]1COCCN1c1cc(=O)n2c(n1)N(Cc1cncc(Cl)c1)[C@H](C(F)(F)F)CC2	inactive
Cc1ccc(C(=O)Nc2ccc(S(=O)(=O)O)c3cc(S(=O)(=O)O)cc(S(=O)(=O)O)c23)cc1NC(=O)c1cccc(NC(=O)Nc2cccc(C(=O)Nc3cc(C(=O)Nc4ccc(S(=O)(=O)O)c5cc(S(=O)(=O)O)cc(S(=O)(=O)O)c45)ccc3C)c2)c1	inactive
C=CC(=O)Nc1cccc(Oc2nc(Nc3ccc(N4CCN(C)CC4)cc3OC)ncc2Cl)c1	9.34 µM (active)
COc1ccc(-c2c(C)nn3c(NCCN4CCOCC4)cc(C)nc23)cc1OC	20.9 µM (active)
